Experiment: Determination of terminal half times after intravenous injection in beagle dogs (plasma, LC/MS-MS)
Assay type: in vivo
Conditions: in vivo; dog, intravenous, 2 mg/kg; read-out: terminal half time (t½)
Ends that are not written are not given here.
measuredQuantity: half-life (min)
# number only, unit min dropped from output

What value of half-life has been reported for the following sequence? AMVSEFLKQAWFIENEEQEYVQTLKSSKGGPGSAVSPYPTFNPSS [Test Item A]
9.16

* * *

Assay: Determination of terminal half times after intravenous injection in rats (plasma, LC/MS-MS)
Design: species or system Male Wistar rats
Settings: in vivo, rat, 0.1 mg/kg, read-out: terminal half time (t½)
Ends that are not written are not given here.
measuredQuantity: half-life (min)
# number only, unit min dropped from output

What value of half-life has been reported for the following sequence? AMVSEFLKQAWFIENEEQEYVQTLKSSKGGPGSAVSPYPTFNPSS [Test Item A]
3.18

* * *

Assay: Determination of terminal half times after intravenous injection in rats (plasma, LC/MS-MS)
Parameters: species or system Male Wistar rats
Conditions: in vivo, rat, 10 mg/kg, read-out: terminal half time (t½)
Ends that are not written are not given here.
measuredQuantity: half-life
For clarity, give the value followed by its unit.

What value of half-life has been reported for the following sequence? AMVSEFLKQAWFIENEEQEYVQTLKSSKGGPGSAVSPYPTFNPSS [Test Item A]
5.85 min

* * *

Experiment: Determination of terminal half times after intravenous injection in beagle dogs (plasma, LC/MS-MS)
Type: in vivo
Details: in vivo; dog, intravenous, 6 mg/kg; read-out: terminal half time (t½)
Method: 6 beagle dogs, 3 males and 3 females, HsdRcc:DOBE from Marshall BioResources, F-03800 Gannat, France. Age 5-6 months, weight 6-8 kg were kept 21° C.±3° C. with relative humidity of 55%±15% with 12 hours light and 12 hours darkness (Light on from 06:00 to 18:00 h). Male and females kept separate. […] Plasma concentration of test item and control peptide was measured by use of LC/MS-MS.
Ends that are not written are not given here.
measuredQuantity: half-life (min)
# number only, unit min dropped from output

What value of half-life has been reported for the following sequence? AMVSEFLKQAWFIENEEQEYVQTLKSSKGGPGSAVSPYPTFNPSS [Test Item A]
19.8

* * *

Assay: Determination of terminal half times after intravenous injection in beagle dogs (plasma, LC/MS-MS)
Format: in vivo
Details: in vivo; dog, intravenous, 1 mg/kg; read-out: terminal half time (t½)
Ends that are not written are not given here.
measuredQuantity: half-life
For clarity, give the value followed by its unit.

What value of half-life has been reported for the following sequence? AMVSEFLKQAWFIENEEQEYVQTLKSSKGGPGSAVSPYPTFNPSSDV [control peptide, reference compound]
5.57 min

* * *

Experiment: Determination of terminal half times after intravenous injection in beagle dogs (plasma, LC/MS-MS)
Format: in vivo
Conditions: in vivo; dog, intravenous, 3 mg/kg; read-out: terminal half time (t½)
Ends that are not written are not given here.
measuredQuantity: half-life

What value of half-life has been reported for the following sequence? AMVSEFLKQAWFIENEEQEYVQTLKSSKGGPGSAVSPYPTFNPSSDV [control peptide, reference compound]
5.69 min
